FYI, the data here is from ChEMBL document CHEMBL5154908.

Subject of test: Mitogen-activated protein kinase 14 (Homo sapiens, UniProt Q16539)
Sequence (Q16539 whole entry): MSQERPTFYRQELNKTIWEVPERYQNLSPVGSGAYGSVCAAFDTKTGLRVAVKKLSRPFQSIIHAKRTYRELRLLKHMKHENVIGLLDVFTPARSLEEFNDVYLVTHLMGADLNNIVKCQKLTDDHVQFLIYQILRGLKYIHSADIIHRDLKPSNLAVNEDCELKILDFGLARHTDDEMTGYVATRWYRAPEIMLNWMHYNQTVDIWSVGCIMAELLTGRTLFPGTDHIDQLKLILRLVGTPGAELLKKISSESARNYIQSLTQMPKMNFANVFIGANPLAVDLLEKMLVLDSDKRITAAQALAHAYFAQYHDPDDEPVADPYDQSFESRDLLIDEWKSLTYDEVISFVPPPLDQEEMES
Assay method text: Inhibition of human recombinant full length GST-tagged p38alpha expressed in Escherichia coli preincubated for 2 hrs followed by ATP addition and measured after 1 hr by Alpha screen assay
# strict inequality: IC50 < 400 pM yields satisfied, everything else yields not satisfied

Some solved entries appear below for comparison.
Structure string	Subject of test	Category
Cc1ccc(-n2nc(C(C)(C)C)cc2NC(=O)N[C@H]2CC[C@@H](Oc3ccc4nnc(N5CCOCC5)n4c3)c3ccccc32)cc1	Mitogen-activated protein kinase 14 (Homo sapiens, UniProt Q16539)	not satisfied
CN1CCN(Cc2ccc(-n3nc(C(C)(C)C)cc3NC(=O)N[C@H]3CC[C@@H](Oc4ccc5nnc(N6CCCCC6)n5c4)c4ccccc43)cc2)CC1	Mitogen-activated protein kinase 14 (Homo sapiens, UniProt Q16539)	not satisfied
C[C@H]1CCCCN1c1nnc2ccc(O[C@@H]3CC[C@H](NC(=O)Nc4cc(C(C)(C)C)nn4-c4cnn(CCN(C)C)c4)c4ccccc43)cn12	Mitogen-activated protein kinase 14 (Homo sapiens, UniProt Q16539)	satisfied
CC(C)c1nnc2ccc(O[C@@H]3CC[C@H](NC(=O)Nc4cc(C(C)(C)C)nn4-c4ccc(O)c(Cl)c4)c4ccccc43)cn12	Mitogen-activated protein kinase 14 (Homo sapiens, UniProt Q16539)	satisfied

Alright, here's another compound for you.
Item COCCN(C)CCn1cc(-n2nc(C(C)(C)C)cc2NC(=O)N[C@H]2CC[C@@H](Oc3ccc4nnc(N5CCCC[C@@H]5C)n4c3)c3ccccc32)cn1 : IC50 beneath 400 pM, strictly?
satisfied
